testedOn: furin, P09958
Sequence (P09958 whole entry): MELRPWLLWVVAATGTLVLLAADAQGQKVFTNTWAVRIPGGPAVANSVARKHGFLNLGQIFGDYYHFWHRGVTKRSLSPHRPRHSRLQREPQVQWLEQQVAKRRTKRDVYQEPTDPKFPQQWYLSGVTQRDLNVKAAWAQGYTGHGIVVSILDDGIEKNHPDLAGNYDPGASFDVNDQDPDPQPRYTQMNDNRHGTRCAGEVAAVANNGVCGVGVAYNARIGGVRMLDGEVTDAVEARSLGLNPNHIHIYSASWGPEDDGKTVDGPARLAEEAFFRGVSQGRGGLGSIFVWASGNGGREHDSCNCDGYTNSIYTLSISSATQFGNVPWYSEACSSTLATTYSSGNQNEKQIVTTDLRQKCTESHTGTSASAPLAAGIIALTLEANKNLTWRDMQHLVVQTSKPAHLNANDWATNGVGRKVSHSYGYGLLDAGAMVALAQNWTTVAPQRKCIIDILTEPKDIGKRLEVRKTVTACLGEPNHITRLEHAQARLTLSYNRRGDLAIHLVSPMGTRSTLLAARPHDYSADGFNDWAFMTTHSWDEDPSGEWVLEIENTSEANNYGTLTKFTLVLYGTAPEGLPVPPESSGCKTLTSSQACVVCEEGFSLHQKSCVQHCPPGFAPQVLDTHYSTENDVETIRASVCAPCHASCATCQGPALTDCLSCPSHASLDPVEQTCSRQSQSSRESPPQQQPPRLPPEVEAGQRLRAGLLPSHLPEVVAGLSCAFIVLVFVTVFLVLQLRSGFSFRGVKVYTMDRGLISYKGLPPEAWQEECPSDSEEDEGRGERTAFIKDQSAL
assaySummary: furin cleavage Z-score vs untreated control; higher = more cleavage, active = 3.5 or more, inactive = 1 or less, 8 variable residues between constant flanks;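 note: purified furin at 1:10 enzyme:substrate in 50 mM HEPES pH 7.5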
statedConditions: 15 min
The list shows a part of the results. The true hit rate is not given.
experimentalEndpoint: furin cleavage Z-score
Form rule: numeric answer, no unit written next to it.

sequenceEntry | furin cleavage Z-score
CARPFRQVLAAGNASASA [FS-2738] | 0.095
CAVVCCSMSYAGNASASA [HC94] | 0.141

Return furin cleavage Z-score for the following sequence: CALTPPHSAKAGNASASA [HC1416] 0.481
